tested-target: Urokinase (Abbokinase) (Homo sapiens)
assay-method-text: Urokinase chromogenic substrate (S-2444) IC50 assay
pIC50: −log10 of the molar value. Non-standard residues stand in square brackets, D forms with d. Residues, ends and D or L forms follow the SMILES beside them. *: point of attachment. cisHyp = O=C(O)[C@@H]1C[C@H](O)CN1; Cbz = O=C(OCc1ccccc1)*
measure-name: pIC50

compound	tested-target	pIC50
CC[C@H](NC(=O)[C@@H](CO)NC(=O)OCc1ccccc1)C(=O)N[C@H](C=O)CCCNC(=N)N	Urokinase (Abbokinase) (Homo sapiens)	> 7.00

# input # pIC50 lookup, item N=C(N)NCCC[C@@H](C=O)NC(=O)[C@@H]1C[C@H](O)CN1C(=O)[C@@H](CO)NC(=O)OCc1ccccc1 [Compound 49] (Cbz-[dS]-[cisHyp]-Arg-aldehyde)
# output > 7.00

# input Sample `C[C@H](NC(=O)[C@@H](CO)NC(=O)NCC1CCCCC1)C(=O)N[C@H](C=O)CCCNC(=N)N` — what was its pIC50?
# output 6.60 to 7.00
